- Tested on: PNT2 cells
- experiment.summary: MTT cytotoxicity assay in PNT2 cells
- Format: cell-based, human
- test.parameters: Homo sapiens, PNT2, 48 h, 48 h of treatment
Below, each of the molecules is paired with its reported IC50 value.
measured.metric: IC50 (µM)

>>> print(df.to_string())
                                   molecule  relation_qualifier  assay_value
0  CC1(C)OC2OC(C(O)COC3=CC(=O)c4cccc(O)c4C3=O)C(O)C2O1 (stereo not shown) [Compound 11]                   =         4.96
1  O=C1C=C(OC[C@H]2OC(O)[C@H](O)[C@@H](O)[C@@H]2O)C(=O)c2c(O)c(Cl)c(Cl)c(O)c21 (stereo partly shown) [Compound 28]                   >          100
2  CCc1c(O)c2c(c(O)c1Cl)C(=O)C(OC)=CC2=O [Compound 21]                   =         27.4
3  O=C1C=C(OC[C@H]2OC(O)[C@H](O)[C@@H](O)[C@@H]2O)C(=O)c2c(O)cccc21 (stereo partly shown) [Compound 12]                   =          103

* * *

Below, each of the compounds is paired with its reported pIC50 value.
- Tested on: PNT2 cells
- experiment.summary: MTT cytotoxicity assay in PNT2 cells
- Assay type: cell-based, human
- test.parameters: Homo sapiens, PNT2, 48 h, 48 h of treatment
pIC50: −log10 of the molar value.
measured.metric: pIC50

>>> df
                                   compound  measured_metric  assay_value
0  CCc1c(O)c2c(c(O)c1OC)C(=O)C(OC[C@H]1OC(O)[C@H](O)[C@@H](O)[C@@H]1O)=CC2=O (stereo partly shown) [Compound 20]            pIC50         4.55
1  CCc1c(O)c2c(c(O)c1Cl)C(=O)C(OCC(O)C1OC3OC(C)(C)OC3C1O)=CC2=O (stereo not shown) [Compound 23]            pIC50         5.28
2  CC1(C)OC2OC(C(O)COC3=CC(=O)c4c(O)cccc4C3=O)C(O)C2O1 (stereo not shown) [Compound 7]            pIC50         5.14
3  COC1=CC(=O)c2c(O)c(Cl)c(Cl)c(O)c2C1=O [Compound 25]            pIC50         5.91

* * *

Below, each of the compounds is paired with its reported pIC50 value.
- System: RWPE-1 cells
- experiment.summary: MTT cytotoxicity assay in RWPE-1 cells
- Assay type: cell-based
- test.parameters: Homo sapiens, 48 h of treatment, non-cancer
pIC50: −log10 of the molar value.
measured.metric: pIC50

>>> df
                                   compound  assay_value
0  CC1(C)OC2OC(C(O)COC3=CC(=O)c4cccc(O)c4C3=O)C(O)C2O1 (stereo not shown)         5.83
1  CC1(C)OC2OC(C(O)COC3=CC(=O)c4c(O)cccc4C3=O)C(O)C2O1 (stereo not shown)         5.47
2  O=C1C(OC[C@H]2OC(O)[C@H](O)[C@@H](O)[C@@H]2O)=CC(=O)c2c(O)cccc21 (stereo partly shown)         4.30
3  O=C1C=C(OC[C@H]2OC(O)[C@H](O)[C@@H](O)[C@@H]2O)C(=O)c2c(O)cccc21 (stereo partly shown)         4.32

* * *

- System: PNT2 cells
- experiment.summary: MTT cytotoxicity assay in PNT2 cells
- Type: cell-based, human
- test.parameters: Homo sapiens, PNT2, 48 h, 48 h of treatment
pIC50: −log10 of the molar value.
Below, each of the compounds is paired with its reported pIC50 value.
measured.metric: pIC50

>>> print(df.to_string())
                                   compound  relation_qualifier  assay_value
0                COC1=CC(=O)c2c(O)cccc2C1=O                   =         5.23
1  CC1(C)OC2OC3C(COC4=CC(=O)c5c(O)cccc5C4=O)OC(C)(C)OC3C2O1 (centres unmarked)                   =         5.39
2                   COC1=CC(=O)c2ccccc2C1=O                   =         4.84
3                COC1=CC(=O)c2cccc(O)c2C1=O                   =         5.39
4  CCc1c(O)c2c(c(O)c1Cl)C(=O)C(OCC1OC(C)(C)OC3C1OC1OC(C)(C)OC13)=CC2=O (centres unmarked)                   =         5.53
5     CCc1c(O)c2c(c(O)c1OC)C(=O)C(OC)=CC2=O                   =         4.90
6  O=C1C=C(OCC2OC(O)C(O)C(O)C2O)C(=O)c2ccccc21 (centres unmarked)                   <         4.00
7             COC1=CC(=O)c2c(O)ccc(O)c2C1=O                   =         5.01
